# ASSAY SYSTEM: human ether-à-go-go-related gene (hERG) potassium channel (human);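 note: peak tail current of the secondary pulse compared with the same well before compound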
# Sequence (Q12809 whole entry, looked up): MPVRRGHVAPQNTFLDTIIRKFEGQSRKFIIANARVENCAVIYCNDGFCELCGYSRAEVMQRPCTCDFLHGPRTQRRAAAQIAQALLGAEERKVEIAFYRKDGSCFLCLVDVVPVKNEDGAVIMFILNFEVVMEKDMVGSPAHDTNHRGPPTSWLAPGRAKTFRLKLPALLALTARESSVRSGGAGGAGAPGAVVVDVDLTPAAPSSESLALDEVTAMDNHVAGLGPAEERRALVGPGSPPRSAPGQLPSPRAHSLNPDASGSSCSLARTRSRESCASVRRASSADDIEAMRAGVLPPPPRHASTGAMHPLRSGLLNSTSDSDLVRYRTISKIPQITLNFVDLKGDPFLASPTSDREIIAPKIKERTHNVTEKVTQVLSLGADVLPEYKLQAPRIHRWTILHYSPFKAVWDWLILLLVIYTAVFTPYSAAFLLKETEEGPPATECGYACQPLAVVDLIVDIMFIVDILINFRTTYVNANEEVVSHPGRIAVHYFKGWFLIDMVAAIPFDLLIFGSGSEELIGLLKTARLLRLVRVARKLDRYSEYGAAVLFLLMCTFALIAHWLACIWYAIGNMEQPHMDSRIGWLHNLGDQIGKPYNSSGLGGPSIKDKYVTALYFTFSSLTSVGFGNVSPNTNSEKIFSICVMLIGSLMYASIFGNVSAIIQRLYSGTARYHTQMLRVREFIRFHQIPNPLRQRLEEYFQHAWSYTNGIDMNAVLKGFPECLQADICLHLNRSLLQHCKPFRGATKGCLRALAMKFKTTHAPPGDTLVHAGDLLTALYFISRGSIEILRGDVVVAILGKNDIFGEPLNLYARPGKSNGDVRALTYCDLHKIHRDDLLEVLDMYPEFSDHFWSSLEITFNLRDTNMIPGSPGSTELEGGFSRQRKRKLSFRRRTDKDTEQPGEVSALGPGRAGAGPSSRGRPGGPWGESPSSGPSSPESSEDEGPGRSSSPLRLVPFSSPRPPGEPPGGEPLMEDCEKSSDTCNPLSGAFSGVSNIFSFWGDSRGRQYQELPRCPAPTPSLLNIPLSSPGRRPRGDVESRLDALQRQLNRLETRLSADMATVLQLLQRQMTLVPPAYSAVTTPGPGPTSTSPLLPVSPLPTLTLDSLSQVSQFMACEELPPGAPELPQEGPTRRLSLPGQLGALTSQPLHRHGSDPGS
# ASSAY NAME: primary screen, population patch clamp on CHO cells stably expressing hERG; higher = less effect of the substance
The whole screen tested about 310,000 compounds, of which about 14,000 (4.5%) showed an effect of 50% or more. Effects have a minus sign here. Shown is part of a subset that was picked to be rich in strong results.
RECORDED METRIC: hERG current change (%, negative = inhibition) at 10uM (%)

compound=COc1cc2ccccc2cc1C(=O)Nc1ccncc1 measurement=-24.8
compound="CC(=O)c1cccc(CN2CCN(Cc3ccc(C)cc3)C(CCO)C2)c1 (stereo not drawn)" measurement=-69
compound="CC(=O)c1cccc(CN2CCN(Cc3ccccc3)C(CCO)C2)c1 (stereo not drawn)" measurement=-1.84
compound="CC(=O)c1cc(CN2CCN(Cc3ccccc3)C(CCO)C2)cs1 (stereo not drawn)" measurement=2.03
compound="CC(=O)c1cccc(CN2CCN(CCc3ccccc3)C(CCO)C2)c1 (stereo not drawn)" measurement=-53.3
compound="CCOc1ccccc1CN1CCN(Cc2csc(C(C)=O)c2)CC1CCO (stereo not drawn)" measurement=-44.5
compound="CC(=O)c1cc(CN2CCN(CCc3ccccc3)C(CCO)C2)cs1 (stereo not drawn)" measurement=-54.4
compound="CC(=O)c1cc(CN2CCN(C3CCN(C(C)C)CC3)C(CCO)C2)cs1 (stereo not drawn)" measurement=-3.56
compound="CC(=O)c1cccc(CN2CCN(CC(C)C)C(CCO)C2)c1 (stereo not drawn)" measurement=5.29
compound=COc1cc2ccccc2cc1C(=O)Nc1nnc(-c2ccncc2)o1 measurement=-52.3
compound=O=C(c1ccc2c3c(cccc13)C(=O)N(O)C2=O)N1CCCCC1 measurement=12.4
compound="CC(=O)c1cccc(CN2CCN(Cc3ccc(F)cc3)C(CCO)C2)c1 (stereo not drawn)" measurement=-32.9
compound="COCCN1CC(CNC(=O)c2cc(COc3ccc(C)c(C)c3)on2)CC1=O (stereo not drawn)" measurement=-20.8
compound=O=C(Nc1nnc(-c2ccncc2)o1)c1ccc2ccccc2c1 measurement=-3.08
compound="CC(=O)c1cccc(CN2CCN(CCC(C)C)C(CCO)C2)c1 (stereo not drawn)" measurement=-29
compound=Cc1cc(OCc2cc(C(=O)NC3CCC3)no2)cc(C)c1Cl measurement=3.82
compound="COc1cccc(OCc2cc(C(=O)NCCN3CCCCC3CO)no2)c1 (stereo not drawn)" measurement=2.5
compound="CC(=O)c1cc(CN2CCN(CCC(C)C)C(CCO)C2)cs1 (stereo not drawn)" measurement=-5.53
compound=COc1ccc(NC(=O)c2ccc(S(=O)(=O)N3CCCC3)cc2)cc1OC measurement=-158
compound=COc1ccc(NC(=O)c2cccc(S(=O)(=O)N3CCCC3)c2)cc1OC measurement=-4.78
compound=COc1ccc(NC(=O)c2ccc(Cl)nc2)cc1S(=O)(=O)N1CCCCC1 measurement=-59
